- experiment_summary: Toxicity in rat assessed as survival rate at 50 mg/kg
- Type: organism-based
- measurement_conditions: in vivo
recorded_metric: survival (%)
Report as a plain number; the unit % is understood.

Qu. Could you share which survival value was measured for Cn1c(=O)nc2sc3ccccc3nc-2c1=O ?
Ans. 69

----------
- Tested on: T47D
- experiment_summary: Cytotoxicity against human T47D cells
- Assay type: functional, cell-based
recorded_metric: IC50 (µg/mL)
Numeric answer only, unit µg/mL assumed.

Qu. Bench note: what IC50 did C(#CCN1c2cnccc2Sc2cccnc21)CN1CCN(c2ccccc2)CC1 show?
Ans. 45.8

Qu. If you can, please state the reported IC50 value of CCN(CC)CCCN1c2ccc3ccccc3c2Sc2cc3ccccc3nc21 .
Ans. 5.9

Qu. Could you tell me which IC50 is on file for CN(C)CCCN1c2ccccc2Sc2cccnc21 ?
Ans. 32.3

Qu. Form field: reported IC50 of CN1CCN(CC#CCN2c3ccncc3Sc3ccncc32)CC1
Ans. 9.6

----------
- assay_system: Intercellular adhesion molecule 1 (Homo sapiens, UniProt P05362)
- Sequence (P05362 whole entry): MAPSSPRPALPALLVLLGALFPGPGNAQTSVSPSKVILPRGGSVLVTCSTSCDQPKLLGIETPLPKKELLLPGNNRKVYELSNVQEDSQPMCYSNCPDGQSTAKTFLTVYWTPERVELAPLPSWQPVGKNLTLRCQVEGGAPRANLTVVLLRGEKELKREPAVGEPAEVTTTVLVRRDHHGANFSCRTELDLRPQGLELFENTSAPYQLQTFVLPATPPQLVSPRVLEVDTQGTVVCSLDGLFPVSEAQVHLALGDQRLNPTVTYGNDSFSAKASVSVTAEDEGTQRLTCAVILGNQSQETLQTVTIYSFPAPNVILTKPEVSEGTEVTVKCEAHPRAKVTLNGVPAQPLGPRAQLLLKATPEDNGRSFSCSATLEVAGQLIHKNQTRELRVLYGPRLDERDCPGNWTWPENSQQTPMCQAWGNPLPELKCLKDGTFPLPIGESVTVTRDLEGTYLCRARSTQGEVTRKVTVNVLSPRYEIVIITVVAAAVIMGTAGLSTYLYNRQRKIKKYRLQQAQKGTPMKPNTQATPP
- experiment_summary: Inhibition of ICAM1 (unknown origin)
pIC50: −log10 of the molar value.
Consider the following compounds; for each one, report its pIC50.

Qu. Looking for the measured pIC50 of c1cnc2c(n1)Nc1cc(CN3CCCCCCC3)ccc1S2 , can you help?
Ans. 5.85 to 6.57

Qu. pIC50 for O=S(=O)(NC1CCN(Cc2ccc3c(c2)Nc2nccnc2S3)CC1)C(F)(F)F ?
Ans. 5.85 to 6.57

Qu. Requested field: pIC50. Item: CN(C)S(=O)(=O)N1CCN(Cc2ccc3c(c2)Nc2nccnc2S3)CC1
Ans. 5.85 to 6.57

Qu. Would you mind telling me what pIC50 value was observed for CC(C)(CCC1CCN(Cc2ccc3c(c2)Nc2nccnc2S3)CC1)C(=O)O ?
Ans. 6.00 to 6.38

Qu. Dear colleague, I am looking for the recorded pIC50 of the following compound: NS(=O)(=O)N1CCN(Cc2ccc3c(c2)Nc2nccnc2S3)CC1
Ans. 5.85 to 6.57

Qu. What value of pIC50 has been recorded for this entry: O=C(O)c1ccc(CC2CCN(Cc3ccc4c(c3)Nc3nccnc3S4)CC2)cc1
Ans. 6.00 to 6.38

Qu. For CS(=O)(=O)NC1CCN(Cc2ccc3c(c2)Nc2nccnc2S3)CC1 , what is its reported pIC50?
Ans. 5.85 to 6.57

Qu. GET /values?readout=pIC50&item= O=C(O)CC1C2CCCC1CN(Cc1ccc3c(c1)Nc1nccnc1S3)C2 (stereo in doubt; 64d)
Ans. 5.64

Qu. Recorded pIC50 for CS(=O)(=O)N1CCN(Cc2ccc3c(c2)Nc2nccnc2S3)CC1 , please?
Ans. 5.85 to 6.57

Qu. What pIC50 value was documented for this compound, CS(=O)(=O)NCC1CCN(Cc2ccc3c(c2)Nc2nccnc2S3)CC1 ?
Ans. 5.85 to 6.57

Qu. So what's the measured pIC50 for this one? O=S(=O)(NC1CCN(Cc2ccc3c(c2)Nc2nccnc2S3)CC1)N1CCOCC1
Ans. 5.85 to 6.57

Qu. What measured pIC50 goes with O=S(=O)(NC1CCN(Cc2ccc3c(c2)Nc2nccnc2S3)CC1)N1CCCCC1 ?
Ans. 5.85 to 6.57
